test: growth inhibition of non-replicating M. tuberculosis (AID 488890); conditions: Mycobacterium tuberculosis non-replicating, at 25 µM, stronger effect = higher value;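 also: plate controls were DMSO cells for no effect and high antibiotic wells for full effect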
The campaign covered roughly 320,000 compounds. About 1,300 (0.41%) were called active. Not shown: some 3% with an inconclusive outcome. Only a sample is shown. Results with a measured potency or affinity are listed apart.
inhibition values for the compounds below.

{"columns": ["compound", "inhibition [%]"],
 "data": [
  ["CCC(C)c1ccc(O)c(NC(=O)c2cccnc2)c1 (stereo unspecified)", 5.33],
  ["O=C(N/N=C/c1cccc([N+](=O)[O-])c1)c1cccc(Br)c1", -5.27],
  ["COc1ccc(C2CC(C(F)(F)F)n3ncc(C(=O)O)c3N2)cc1OC (stereo unspecified)", -8.85],
  ["CCc1ccc(C(=O)Nc2cc3c(cc2Cl)OCCCO3)cc1", 42],
  ["Cc1nc(OCc2c(C)noc2C)c2ccccc2n1", -6.1],
  ["CCOc1ccc(NC(=O)CCC(=O)N/N=C/c2ccc3c(c2)OCO3)cc1", 12.5],
  ["NC(N)=NS(=O)(=O)c1ccc(NC(=S)NC(=O)c2ccc(Br)cc2)cc1", 2.25],
  ["Cc1ccccc1NC(=O)c1ccc(Cl)c(NC(=O)c2cccnc2)c1", -8.32],
  ["CCc1ccc(NC(=O)CSc2nc(O)cc(=O)n2C2CCCC2)cc1", 37.7],
  ["Brc1ccc2c(c1)C(c1ccc(N3CCOCC3)cc1)=NNC(c1cccs1)=N2", 18.5],
  ["O=C(N/N=C/c1ccc(Br)s1)c1cccc([N+](=O)[O-])c1", -22]
]}

---

test: growth inhibition of non-replicating M. tuberculosis (AID 488890); conditions: Mycobacterium tuberculosis non-replicating, at 25 µM, stronger effect = higher value
Among all 320,000 compounds or so, about 1,300 (0.41%) were called active. Roughly 3% stayed inconclusive and do not appear here. Only a sample is shown. Results with a measured potency or affinity are listed apart.

{"columns": ["compound", "inhibition (%)"],
 "data": [
  ["O=C(O)C1CCN(S(=O)(=O)c2ccc(N3CCOCC3)c([N+](=O)[O-])c2)CC1", -8.22],
  ["CN1CCCC(OC(=O)c2ccccc2Br)C1 (stereo not drawn)", -1.81],
  ["COc1cc(/C=N/Nc2nc3ccccc3s2)cc([N+](=O)[O-])c1O", 22],
  ["Cc1cc(C)c2ccc(N)nc2c1O", 41.3],
  ["CC1=CC2=NC(=O)/C(=C/c3cccs3)C(=N)N2O1", -5.09],
  ["CC(=O)c1ccccc1Oc1cc(NN2CCCCC2)c([N+](=O)[O-])cc1[N+](=O)[O-]", 30.5],
  ["O=[N+]([O-])c1cc(/C=N\\Nc2ccccn2)ccc1Cl", -14.6],
  ["O=C(N/N=C/c1cc(Cl)cc([N+](=O)[O-])c1O)c1cc(-c2ccccn2)nc2ccccc12", 4.78],
  ["O=Nc1c(-c2ccccc2)[nH]n(-c2ccccc2)c1=O", 63],
  ["CC[n+]1c(/C=C/Nc2ccccc2)oc2ccc(OC)cc21", 35.5],
  ["COc1cc(/C=C2/C(=N)N3OC(C)=CC3=NC2=O)ccc1OCCOc1ccc(C)cc1", -6.61],
  ["O=C(N/N=C/C(Br)=C/c1ccccc1)c1cccnc1", 56.4],
  ["Cc1ccc(OCC(=O)Nc2ccccc2C(=O)N2CCCC2)cc1", 1.03],
  ["CC(=O)Nc1ccc(OCCOc2ccc(/C=C3/C(=N)N4C=CSC4=NC3=O)cc2)cc1", 2.76],
  ["CC(=O)Nc1ccc(N/C(N)=N/c2nc(C)cc(C)n2)cc1", -1.18],
  ["Cc1cccc(C)c1NC(=S)NCCCN1CCCC1=O", -28.2],
  ["CC[n+]1c(/C=C/Nc2ccccc2)oc2ccccc21", 67.7],
  ["CC(/C=N/NC(=O)c1ccncc1)=C\\c1ccccc1", 56.6],
  ["COc1ccc(C(=O)C[n+]2ccc3c(c2)nc(-c2ccccc2)n3C)cc1", 65.3],
  ["Cc1c(O)ccc(/C=N/Nc2ncccc2[N+](=O)[O-])c1O", -1.95],
  ["c1ccc(-c2ccc(SCc3cccnc3)nn2)nc1", 63.6],
  ["c1ccc(CSc2ccc(-c3ccccn3)nn2)nc1", 36.2],
  ["COc1ccccc1C(=O)OCCN=C1NS(=O)(=O)c2ccccc21", 3.36]
]}

---

experiment: growth inhibition of non-replicating M. tuberculosis (AID 488890); conditions: Mycobacterium tuberculosis non-replicating, at 25 µM, stronger effect = higher value;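 also: plate controls were DMSO cells for no effect and high antibiotic wells for full effect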
Screen size: about 320,000 compounds; about 1,300 (0.41%) were called active. Roughly 3% stayed inconclusive and do not appear here. A selection follows. Entries with a potency or affinity are not part of this list.

{"columns": ["compound", "inhibition (%)"],
 "data": [
  ["O=C(N/N=C/c1ccc2c(c1)OCO2)c1ccc2c(c1)OCO2", 23.3],
  ["Cc1ccccc1-c1cnn(-c2cccc([N+](=O)[O-])c2)c1N", 14.7],
  ["CNc1c([N+](=O)[O-])cnn1-c1ccccc1Cl", 10.6],
  ["CC(=O)CSc1nnc(Cc2ccc([N+](=O)[O-])cc2)o1", 70.9],
  ["O=[N+]([O-])c1cnc(Nc2ccccc2)nc1Nc1ccccc1", 0.51],
  ["O=C(O)c1cc(N2C(=O)C3CCCCC3C2=O)ccc1NCc1cccnc1 (stereo unspecified)", 4.47],
  ["COc1cccc(/C=N/NC(=O)CNC(=O)c2ccc3c(c2)OCCO3)c1O", -7.52],
  ["Cc1nnc(SCc2ccc([N+](=O)[O-])cc2)o1", 16.4],
  ["COc1cccc(C(=O)Nc2ccccc2F)c1", -15.1],
  ["CCOc1ccc(-c2nnc(-c3ccc(OC)cc3)o2)cc1", 53.7],
  ["COc1cccc(/C=N/NC(=O)N/N=C/c2cccc(OC)c2O)c1O", -1.08]
]}

---

test: growth inhibition of non-replicating M. tuberculosis (AID 488890); conditions: Mycobacterium tuberculosis non-replicating, at 25 µM, stronger effect = higher value;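 also: plate controls were DMSO cells for no effect and high antibiotic wells for full effect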
In all, about 320,000 compounds went through this assay and about 1,300 (0.41%) were called active. About 3% were inconclusive and are not listed. Only a sample is shown. Measured potencies and affinities stand elsewhere.

{"columns": ["compound", "inhibition / %"],
 "data": [
  ["CCN(CC)C(=O)CSc1ccc(C(F)(F)F)cc1[N+](=O)[O-]", -2.61],
  ["C/C(=N\\NC(=O)c1ccccn1)C12CC3CC(CC(C3)C1)C2", 54.4],
  ["O=C(COC(=O)c1ccccn1)NC12CC3CC(CC(C3)C1)C2", 30.9],
  ["O=C(CSc1nnc(CNC(=O)c2ccco2)o1)Nc1ccccc1", -9.27],
  ["CCSc1nnc([C@@H](N)Cc2ccccc2)o1", 4.66],
  ["O=C(OCC(=O)C12CC3CC(CC(C3)C1)C2)c1cnccn1", 17.7],
  ["CN1CCN(S(=O)(=O)c2ccc(NS(=O)(=O)c3ccccc3)cc2)CC1", 2.91],
  ["COc1ccc(CCN2C(=O)CC(N3CCN(S(=O)(=O)c4ccccc4)CC3)C2=O)cc1OC (stereo unspecified)", 13.8],
  ["O=C(CSc1nnc(CNC(=O)c2ccco2)o1)c1ccccc1", 17.8],
  ["CCSc1nnc(C(N)Cc2ccccc2)o1 (stereo unspecified)", 42.5],
  ["O=C(O)c1cc2c(N3CCC(Cc4ccccc4)CC3)ncnc2s1", 11.8]
]}

---

test: growth inhibition of non-replicating M. tuberculosis (AID 488890); conditions: Mycobacterium tuberculosis non-replicating, at 25 µM, stronger effect = higher value;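 also: plate controls were DMSO cells for no effect and high antibiotic wells for full effect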
Among all 320,000 compounds or so, about 1,300 (0.41%) were called active. Another 3% or so got no clear call; they are omitted. Not all results are given here. Entries with a potency or affinity are not part of this list.
measure: inhibition (%)

{"columns": ["compound", "unit.text", "observed"],
 "data": [
  ["Cc1ccc(S(=O)(=O)N2CCCC2C(=O)NC2CCCCC2)cc1 (centres undefined)", "%", 13.2],
  ["CCn1ccc(C(=O)NCCCN2CCCC2=O)n1", "%", 5.42],
  ["Cc1cc(Nc2nc3ccccc3nc2Cl)n(-c2ccccc2)n1", "%", 8.46],
  ["CSC1=NSC2=NC(=O)/C(=C/c3coc4ccccc4c3=O)C(=N)N12", "%", -10.1],
  ["CCOc1ccc2nc(NC(=O)c3cccnc3)sc2c1", "%", 8.67],
  ["C=CCSc1nnc2c(n1)OC(C)=Nc1ccc(Br)cc1-2", "%", 5.66],
  ["O=c1c2[nH]c3ccc(Br)cc3c2ncn1Cc1ccncc1", "%", -8.92],
  ["O=C(CCc1nc(-c2ccccc2Cl)no1)NCc1ccco1", "%", 43.2],
  ["O=C(COc1ccc(Br)cc1)N1CCC(c2ccccc2)C1 (centres undefined)", "%", 68],
  ["CC(=O)c1cccc(NC(=O)N(c2ccccc2)c2ccccc2)c1", "%", 4.45],
  ["Nc1ccc2c(c1)C(=O)c1ccccc1-2", "%", 79.4],
  ["CCOc1ccc2nc(NC(=O)c3ccc(C)o3)sc2c1", "%", 27.5],
  ["COc1cc(NS(=O)(=O)c2csc(C(N)=O)c2)cc(OC)c1", "%", 2.46],
  ["CN(Cc1ccccc1)C(=O)COC(=O)C1CCN(S(=O)(=O)c2ccc(Cl)c(C(F)(F)F)c2)CC1", "%", -14.1],
  ["Cc1ccc(N)cc1NC(=O)CN1CCOCC1", "%", 6.66],
  ["COc1cccc(Oc2nnnn2-c2ccccc2)c1", "%", 6.02],
  ["CSC1=NSC2=NC(=O)/C(=C\\c3coc4ccccc4c3=O)C(=N)N12", "%", -4.28],
  ["CCCCCCCC(=O)N/N=C(\\C)c1cccnc1", "%", -21.2],
  ["COc1ccc(O)c(/C=N/NC(=O)c2cccc(N3CCCC3=O)c2)c1", "%", 5.55],
  ["Cn1nc(C(=O)N2CCOCC2)c2ccccc2c1=O", "%", -8.35],
  ["C/C(=N\\NC(=O)CCCNc1ccccc1)c1ccncc1", "%", 1.29],
  ["COc1cccc(-n2nnnc2SCC(=O)NC2CCCC2)c1", "%", 7.16],
  ["CCOC(=O)c1c(-c2cccc([N+](=O)[O-])c2)csc1N", "%", 39.4],
  ["Cc1cc(C)c(C)c(S(=O)(=O)NC(C(=O)O)C(C)C)c1C (centres undefined)", "%", -1.77]
]}
